A set of molecules tested on UniProt Q9WTR4, with measured pIC50:
Please note pIC50 is a logarithmic value: minus log10 of concentration in mol/L. Answer with that number alone.

Recorded pIC50 for COC(=O)C1[C@@H](c2ccc(C#Cc3ccccc3)cc2)CC2CC[C@H]1N2C (some centres not stated) on UniProt Q9WTR4 was 6.46

The observed pIC50 for COC(=O)C1[C@@H](c2ccc(C#CCCCc3ccccc3)cc2)CC2CC[C@H]1N2C (some centres not stated) when tested with UniProt Q9WTR4 stands at 5.35

Considering COC(=O)C1[C@@H](c2ccc(C#CCc3ccccc3)cc2)CC2CC[C@H]1N2C (some centres not stated) , its pIC50 with UniProt Q9WTR4 was recorded as 7.56

The reported UniProt Q9WTR4 pIC50 of COC(=O)C1[C@@H](c2ccc(CCCCc3ccccc3)cc2)CC2CC[C@H]1N2C (some centres not stated) is 5.64

---

Sodium-dependent dopamine transporter (Rattus norvegicus, UniProt P23977) pIC50 data
Sequence (P23977 whole entry): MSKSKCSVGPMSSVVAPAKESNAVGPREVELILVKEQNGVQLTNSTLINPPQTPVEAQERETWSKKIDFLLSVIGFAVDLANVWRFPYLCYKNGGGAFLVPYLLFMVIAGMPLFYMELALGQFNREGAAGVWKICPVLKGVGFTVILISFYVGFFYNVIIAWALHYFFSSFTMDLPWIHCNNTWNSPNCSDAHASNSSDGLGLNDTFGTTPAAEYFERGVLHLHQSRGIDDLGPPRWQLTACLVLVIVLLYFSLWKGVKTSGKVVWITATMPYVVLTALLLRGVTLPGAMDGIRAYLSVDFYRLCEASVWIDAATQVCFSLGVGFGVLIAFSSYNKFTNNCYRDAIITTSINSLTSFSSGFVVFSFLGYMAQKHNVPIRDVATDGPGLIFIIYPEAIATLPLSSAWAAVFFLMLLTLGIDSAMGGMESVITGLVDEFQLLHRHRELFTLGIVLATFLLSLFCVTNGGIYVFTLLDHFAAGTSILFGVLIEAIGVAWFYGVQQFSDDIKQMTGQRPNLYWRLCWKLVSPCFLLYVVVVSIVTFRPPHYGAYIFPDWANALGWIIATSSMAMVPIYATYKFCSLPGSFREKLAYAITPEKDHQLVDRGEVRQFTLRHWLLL
Note on units: pIC50 is unitless, being -log10 of a concentration expressed in mol/L.

Consider the following illustrative entries.
compound="C/C=C\\c1ccc([C@H]2CC3CC[C@H](C2C(=O)OC)N3C)cc1 (stereo partly drawn)" study_target="Sodium-dependent dopamine transporter (Rattus norvegicus, UniProt P23977)" measurement=8.28
compound="COC(=O)C1[C@@H](c2ccc3ccccc3c2)CC2CC[C@H]1N2C (stereo partly drawn)" study_target="Sodium-dependent dopamine transporter (Rattus norvegicus, UniProt P23977)" measurement=9.29

Let's switch to this compound now.
Measured pIC50 for this entry COC(=O)C1[C@@H](c2ccc(C#Cc3ccccc3)cc2)CC2CC[C@H]1N2C (stereo partly drawn) on Sodium-dependent dopamine transporter (Rattus norvegicus, UniProt P23977): 8.43

---

# Study Target: Norepinephrine transporter (Rattus norvegicus)
# Sequence (Q9WTR4 whole entry): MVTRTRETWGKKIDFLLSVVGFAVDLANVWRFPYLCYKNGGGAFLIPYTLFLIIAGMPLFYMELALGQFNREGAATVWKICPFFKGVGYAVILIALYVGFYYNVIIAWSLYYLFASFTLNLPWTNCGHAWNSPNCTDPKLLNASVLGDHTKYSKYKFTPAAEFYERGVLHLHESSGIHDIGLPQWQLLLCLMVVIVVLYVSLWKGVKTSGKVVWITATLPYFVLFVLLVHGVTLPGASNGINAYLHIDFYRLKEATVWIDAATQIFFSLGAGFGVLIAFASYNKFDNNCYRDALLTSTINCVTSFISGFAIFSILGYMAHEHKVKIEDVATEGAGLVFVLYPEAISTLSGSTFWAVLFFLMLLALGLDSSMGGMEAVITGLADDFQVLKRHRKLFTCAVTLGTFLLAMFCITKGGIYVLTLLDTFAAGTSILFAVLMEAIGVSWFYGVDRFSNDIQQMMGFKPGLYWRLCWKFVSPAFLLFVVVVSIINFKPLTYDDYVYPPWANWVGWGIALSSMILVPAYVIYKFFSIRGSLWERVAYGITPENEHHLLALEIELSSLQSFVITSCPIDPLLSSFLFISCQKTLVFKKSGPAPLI
# Run Description: Tested for the binding affinity towards Norepinephrine transporter in rat cerebral cortex by displacing [3H]nisoxetine radioligand
# Type: tissue-based
Observed Property: pKi
FYI, pKi means -log10 of a concentration in mol per litre.

compound="COC(=O)C1=C(c2ccc3ccccc3c2)CC2CCC1N2C (stereo not given)" observed_property=pKi measurement=6.65
compound="COC(=O)C1[C@@H](c2ccc(CCCCc3ccccc3)cc2)CC2CC[C@H]1N2C (stereo not given in full)" observed_property=pKi measurement=5.86
compound="COC(=O)C1[C@@H](c2ccc(C#Cc3ccccc3)cc2)CC2CC[C@H]1N2C (stereo not given in full)" observed_property=pKi measurement=6.68

Measured pKi of COC(=O)C1C2CC[C@H](C[C@H]1c1ccc(C)cc1)N2C (stereo not given in full) : 7.44

The recorded pKi for entry COC(=O)C1[C@@H](c2ccc3ccccc3c2)CC2CC[C@H]1N2C (stereo not given in full) equals 7.90

Consider COC(=O)C1[C@@H](c2ccc(/C=C/Cc3ccccc3)cc2)CC2CC[C@H]1N2C (stereo not given in full) . Its measured pKi is 6.12

// pKi value for CC#Cc1ccc([C@H]2CC3CC[C@H](C2C(=O)OC)N3C)cc1 (stereo not given in full) : 6.31

pKi reported for this compound COC(=O)C1[C@@H](c2ccc(C#CCc3ccccc3)cc2)CC2CC[C@H]1N2C (stereo not given in full) : 7.78

Looking up C=Cc1ccc([C@H]2CC3CC[C@H](C2C(=O)OC)N3C)cc1 (stereo not given in full) , I see its pKi listed as 7.33

The compound identified as COC(=O)C1[C@@H](c2ccc(CCc3ccccc3)cc2)CC2CC[C@H]1N2C (stereo not given in full) registered its pKi at 8.19

---

# Study Target: Sodium-dependent serotonin transporter (Rattus norvegicus, UniProt P31652)
# Sequence (P31652 whole entry): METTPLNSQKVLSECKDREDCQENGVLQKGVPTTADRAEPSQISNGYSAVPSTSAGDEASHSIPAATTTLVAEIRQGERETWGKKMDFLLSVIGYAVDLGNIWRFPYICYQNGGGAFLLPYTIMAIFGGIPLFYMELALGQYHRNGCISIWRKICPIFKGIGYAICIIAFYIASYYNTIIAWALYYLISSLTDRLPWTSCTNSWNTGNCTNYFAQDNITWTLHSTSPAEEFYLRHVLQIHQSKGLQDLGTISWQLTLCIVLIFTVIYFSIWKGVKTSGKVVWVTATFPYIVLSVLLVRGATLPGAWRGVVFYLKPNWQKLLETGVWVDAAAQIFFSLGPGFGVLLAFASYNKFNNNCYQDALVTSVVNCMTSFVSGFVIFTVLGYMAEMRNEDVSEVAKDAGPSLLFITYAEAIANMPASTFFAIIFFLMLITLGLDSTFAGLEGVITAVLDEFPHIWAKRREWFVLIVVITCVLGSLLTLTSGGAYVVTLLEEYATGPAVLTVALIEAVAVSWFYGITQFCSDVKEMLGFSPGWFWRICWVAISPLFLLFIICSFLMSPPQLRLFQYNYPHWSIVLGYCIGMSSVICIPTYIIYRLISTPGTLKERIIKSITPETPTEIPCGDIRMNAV
pIC50: −log10 of the molar value.
Hi, to clarify the labels: Met covers pIC50 from 7 upward, Not met covers anything below 7.

These solved cases illustrate the format of a correct answer.
molecule="COC(=O)C1[C@@H](c2ccc(C#CCCc3ccccc3)cc2)CC2CC[C@H]1N2C (stereo partly specified)" study_target="Sodium-dependent serotonin transporter (Rattus norvegicus, UniProt P31652)" assigned_class="Not met"
molecule="COC(=O)C1[C@@H](c2ccc(C#Cc3ccccc3)cc2)CC2CC[C@H]1N2C (stereo partly specified)" study_target="Sodium-dependent serotonin transporter (Rattus norvegicus, UniProt P31652)" assigned_class=Met
molecule="COC(=O)C1[C@@H](c2ccc(C#CCCCCO)cc2)CC2CC[C@H]1N2C (stereo partly specified)" study_target="Sodium-dependent serotonin transporter (Rattus norvegicus, UniProt P31652)" assigned_class="Not met"
molecule="COC(=O)C1[C@@H](c2ccc3ccccc3c2)CC2CC[C@H]1N2C (stereo partly specified)" study_target="Sodium-dependent serotonin transporter (Rattus norvegicus, UniProt P31652)" assigned_class=Met
molecule="COC(=O)C1[C@@H](c2ccc(CCCCc3ccccc3)cc2)CC2CC[C@H]1N2C (stereo partly specified)" study_target="Sodium-dependent serotonin transporter (Rattus norvegicus, UniProt P31652)" assigned_class="Not met"

Exercise: Check this molecule for pIC50 at or above 7: COC(=O)C1[C@@H](c2ccc(C#CCCCc3ccccc3)cc2)CC2CC[C@H]1N2C (stereo partly specified)
Key: Not met

Exercise: For this molecule, is measured pIC50 7 or higher? COC(=O)C1C(c2ccc3ccccc3c2)CC2CC[C@H]1N2C (stereo partly specified)
Key: Met

Exercise: hey, is pIC50 for this one >= 7? COC(=O)C1[C@@H](c2ccc(Cc3ccccc3)cc2)CC2CC[C@H]1N2C (stereo partly specified)
Key: Not met

Exercise: Entry C/C=C\c1ccc([C@H]2CC3CC[C@H](C2C(=O)OC)N3C)cc1 (stereo partly specified) : is its pIC50 no less than 7?
Key: Met

Exercise: Say whether COC(=O)C1[C@@H](c2ccc(/C=C/Cc3ccccc3)cc2)CC2CC[C@H]1N2C (stereo partly specified) shows pIC50 of 7 or more.
Key: Not met

Exercise: Dear colleague, could you confirm whether COC(=O)C1[C@@H](c2ccc(/C=C/c3ccccc3)cc2)CC2CC[C@H]1N2C (stereo partly specified) has pIC50 at or above 7?
Key: Not met

Exercise: Please tell me: is the molecule C#Cc1ccc([C@H]2CC3CC[C@H](C2C(=O)OC)N3C)cc1 (stereo partly specified) at or over 7 in terms of pIC50?
Key: Met

Exercise: Dear colleague, could you confirm whether C=Cc1ccc([C@H]2CC3CC[C@H](C2C(=O)OC)N3C)cc1 (stereo partly specified) has pIC50 at or above 7?
Key: Met

Exercise: Given CC#Cc1ccc([C@H]2CC3CC[C@H](C2C(=O)OC)N3C)cc1 (stereo partly specified) , state whether its pIC50 is at least 7.
Key: Met

---

# Study Target: UniProtKB P23977
# if measured IC50 < 3 nM: Condition met  # else: Condition not met

molecule="COC(=O)C1[C@@H](c2ccc(-c3ccccc3)cc2)CC2CC[C@H]1N2C (stereo not given in full)" assigned_class="Condition not met"
molecule="COC(=O)C1=C(c2ccc3ccccc3c2)CC2CCC1N2C (stereo not given)" assigned_class="Condition not met"
molecule="COC(=O)C1[C@@H](c2ccc(C#CCCCCO)cc2)CC2CC[C@H]1N2C (stereo not given in full)" assigned_class="Condition not met"
molecule="C=C(c1ccccc1)c1ccc([C@H]2CC3CC[C@H](C2C(=O)OC)N3C)cc1 (stereo not given in full)" assigned_class="Condition not met"
molecule="C=Cc1ccc([C@H]2CC3CC[C@H](C2C(=O)OC)N3C)cc1 (stereo not given in full)" assigned_class="Condition met"
molecule="COC(=O)C1C(c2ccc3ccccc3c2)CC2CC[C@H]1N2C (stereo not given in full)" assigned_class="Condition met"
molecule="COC(=O)C1[C@@H](c2ccc(CCCCc3ccccc3)cc2)CC2CC[C@H]1N2C (stereo not given in full)" assigned_class="Condition not met"
molecule="C#Cc1ccc([C@H]2CC3CC[C@H](C2C(=O)OC)N3C)cc1 (stereo not given in full)" assigned_class="Condition met"

Exercise: For COC(=O)C1[C@@H](c2ccc(C#CCCc3ccccc3)cc2)CC2CC[C@H]1N2C (stereo not given in full) , is the recorded IC50 below the cut-off of 3 nM?
Key: Condition not met

---

In this section, each of the molecules is paired with its reported pIC50.
# Study Target: Sodium-dependent dopamine transporter (Rattus norvegicus, UniProt P23977)
pIC50 (log units): -log10 of the concentration in mol/L.

molecule="COC(=O)C1[C@@H](c2ccc(CCCc3ccccc3)cc2)CC2CC[C@H]1N2C (some centres undefined)" measurement=6.45
molecule="COC(=O)C1[C@@H](c2ccc(Cc3ccccc3)cc2)CC2CC[C@H]1N2C (some centres undefined)" measurement=6.28
molecule="CCCc1ccc([C@H]2CC3CC[C@H](C2C(=O)OC)N3C)cc1 (some centres undefined)" measurement=7.16
molecule="COC(=O)C1[C@@H](c2ccc(/C=C\\c3ccccc3)cc2)CC2CC[C@H]1N2C (some centres undefined)" measurement=7.93
molecule="COC(=O)C1[C@@H](c2ccc(CCc3ccccc3)cc2)CC2CC[C@H]1N2C (some centres undefined)" measurement=8.29

Form: item COC(=O)C1[C@@H](c2ccc(C#CCCCc3ccccc3)cc2)CC2CC[C@H]1N2C (some centres undefined) ; test system Sodium-dependent dopamine transporter (Rattus norvegicus, UniProt P23977); pIC50: 6.52

Reading of pIC50 for CC#Cc1ccc([C@H]2CC3CC[C@H](C2C(=O)OC)N3C)cc1 (some centres undefined) with Sodium-dependent dopamine transporter (Rattus norvegicus, UniProt P23977): 8.63

Sodium-dependent dopamine transporter (Rattus norvegicus, UniProt P23977) pIC50 of COC(=O)C1[C@@H](c2ccc(/C=C/Cc3ccccc3)cc2)CC2CC[C@H]1N2C (some centres undefined) is 7.80

# value of pIC50, Sodium-dependent dopamine transporter (Rattus norvegicus, UniProt P23977), item COC(=O)C1[C@@H](c2ccc(C#CCc3ccccc3)cc2)CC2CC[C@H]1N2C (some centres undefined) = 8.74
